The origin of these recorded values is ChEMBL document CHEMBL1201862.

# Test system: RXF 393
# test-name: NCI tumour cell line growth inhibition, 48 h
Calls of active or inactive are those of the source. Cut-off read from the data, not from the text of the source: active = GI50 up to about 1.1 µM and inactive = higher.
Mark one answer only. Choices: t for active, f for inactive

Hi, sorry to bother you, what did the test record for "CCOc1ccc2c(ccc(/C=C/c3cc(C)c4cccnc4c3O)[n+]2C)c1" ?
f

Now give it for "COc1ccc2c(c1)CN([C@@H](C)[C@H]1CC[C@H]3[C@@H]4CC[C@H]5C[C@@H](O)CC[C@]5(C)[C@H]4CC[C@]13C)CO2" too.
f

Now give it for C=CC(O)(CBr)CCC(Br)C(C)(C)Cl (stereo not drawn) too.
f

Now give it for "O=C(NCc1ccccc1)c1cc2cc(O)c(O)cc2cn1" too.
f

Now give it for "OCCN(CCO)c1ccc2c(-c3ccccc3)cc(N(CCO)CCO)nc2n1" too.
f

Now give it for "Clc1ccc(C[P+]2(c3ccccc3)CCCCC2)cc1.[O-][Cl+3]([O-])([O-])[O-]" too.
f

Now give it for Cc1cc(S(=O)(=O)O)c(NC(=O)C(=O)C2C=CCS2(=O)=O)cc1Cl (stereo not drawn) too.
f

Now give it for "O=C(O)CNS(=O)(=O)c1ccc(NC(=O)c2ccccc2[N+](=O)[O-])cc1" too.
f

Now give it for O=C1N(c2ccccc2)C2(O)C(=O)c3ccccc3C2(O)N1c1ccccc1 (stereo not drawn) too.
f

Now give it for "O=C(CSc1nnc(-c2ccc(/N=C\c3ccc(Cl)cc3)cc2)o1)Nc1ccc([N+](=O)[O-])cc1" too.
f

Now give it for "CCCCCCCCCCCCC/C=C(/COCC[N+](C)(C)C)OC(C)=O.CCCCCCCCCCCCCC/C(=C/OCC[N+](C)(C)C)OC(C)=O" too.
t

Now give it for "NC12CC3CC4C1CC1CC2C(C3)C4(N)C1" too.
f

Now give it for "CCCCCCCCCCCC1=C(O)C(=O)C(CC2=C(O)C(=O)C(CCCCCCCCCCC)=C(O)C2=O)=C(O)C1=O" too.
f

----------
# Tested on: CAKI-1
# test-name: NCI tumour cell line growth inhibition, 48 h
The source made the active and inactive calls. No stated cut-off is given here; in the data, active = GI50 up to about 1.1 µM and inactive = higher.
Mark one answer only. Choices: yes for active, no for inactive

Hi, sorry to bother you, what did the test record for CC1=NC(C)(COC(=O)C2(C)NC(C)(CO)CO2)COC1=O (stereo unspecified) ?
no

Now give it for "CC(C)Oc1c(C2(c3ccccc3)SCCCS2)c(=O)c1=O" too.
no

Now give it for "C[C@@H](c1ccccc1)N(CC#N)[C@H]1CCC[C@]1(O)/C=C/c1ccc2c(c1)OCO2" too.
no

Now give it for "COc1ccc2nc3ccccc3c(NCCCCN(CCCl)CCCl)c2c1" too.
yes

Now give it for "O=C(Oc1ccccc1)N1c2ccccc2[C@@]23O[C@]24CCC[C@H]3C#C/C=C\C#C[C@H]14" too.
no

Now give it for "CCCCCCOC(=O)/C=C/[C@]1(CO)C/C(=C/CC(C(C)C)C(C)C)C(=O)O1" too.
no

----------
# System: DU-145
# test-name: NCI tumour cell line growth inhibition, 48 h
Activity calls are given as the source filed them. No stated cut-off is given here; in the data, active = GI50 up to about 1.1 µM and inactive = higher. Where a SMILES comes first, the peptide text is derived from it. The star is where a group is joined. Cbz = O=C(OCc1ccccc1)*
I'd be grateful if you could share measured GI50 for these entries.

Which GI50 value is on record for COc1cc([C@@H]2c3cc4c(cc3[C@@H](OC3OC5COC(C)OC5C(OC(=O)CN5CCN(C)CC5)C3OC(=O)CN3CCN(C)CC3)C3COC(=O)[C@@H]32)OCO4)cc(OC)c1OC(=O)CN1CCN(C)CC1 (stereo partly drawn) ?
44.7 µM (inactive)

Now give it for "CC(C)/C(Cl)=N/OC(NC(=O)Nc1ccc(Cl)c(Cl)c1)(C(F)(F)F)C(F)(F)F" too.
16.7 µM (inactive)

Now give it for Cc1ccc(S(=O)(=O)OC2CN3CCC2CC3)cc1 (stereo not drawn) too.
> 100 µM (inactive)

Now give it for CC(=O)OCC1OC(n2c(-c3ccc(C)cc3)cc(-c3ccccc3)c(C#N)c2=S)C(OC(C)=O)C(OC(C)=O)C1OC(C)=O (stereo not drawn) too.
> 100 µM (inactive)

Now give it for CCOC(=O)CCC(NC(=O)C(Cc1ccccc1)NC(=O)OCc1ccccc1)C(=O)OCC (stereo not drawn) (Cbz-Phe-Glu(OEt)-OEt; configuration not given here) too.
6.58 µM (inactive)

Now give it for C=C(c1ccccc1)C1ON(C)CCc2cc(OC)c(OC)cc21 (stereo not drawn) too.
> 100 µM (inactive)

Now give it for CC(C)(Br)C(Br)CCC1(C(Br)CBr)CO1 (stereo not drawn) too.
> 10 µM (inactive)

Now give it for "OC[C@@H](O)[C@H]1NC[C@@H](O)[C@H]1O" too.
> 100 µM (inactive)

Now give it for Clc1ccc(C2c3ccccc3-c3nc4ccccc4n32)cc1 (stereo not drawn) too.
58.2 µM (inactive)

Now give it for CC#CC(O)(C(=O)OCCCN(C)C)C1CCCCC1 (stereo not drawn) too.
> 100 µM (inactive)

Now give it for "Cc1ccc2c(=O)cc(Cc3csc4ccccc34)[nH]c2n1" too.
50.9 µM (inactive)

Now give it for "O=c1[nH]c(Nc2nc3ccccc3[nH]2)nc2c1CCC2" too.
> 100 µM (inactive)

Now give it for "O=C(/C=C1/Nc2ccc([N+](=O)[O-])cc2N/C1=C/C(=O)c1ccc(Cl)cc1)c1ccccc1" too.
> 100 µM (inactive)

----------
# Test system: SN12C
# test-name: NCI tumour cell line growth inhibition, 48 h
Activity calls are given as the source filed them. Rule as the data show it: active = GI50 up to about 1.1 µM and inactive = higher.
quantity-kind: GI50

Which GI50 value is on record for "CCCCCCCCCCCC1=C(O)C(=O)C(CC2=C(O)C(=O)C(CCCCCCCCCCC)=C(O)C2=O)=C(O)C1=O" ?
> 100 µM (inactive)

Now give it for "O=C1Nc2ccccc2/C1=N/NC(=S)Nc1ccc([N+](=O)[O-])cc1" too.
16.9 µM (inactive)

Now give it for O=C(O)C1C2CCC(O2)C1C(=O)NCc1cccnc1 (centres undefined) too.
> 100 µM (inactive)

Now give it for "CSCCCNC(=O)c1csc(-c2csc(C(CNC(=O)OC(C)(C)C)CNC(=O)OC(C)(C)C)n2)n1" too.
61.8 µM (inactive)

Now give it for "O=C(O)C1(C(=O)O)CC1" too.
> 100 µM (inactive)

Now give it for CCCC1(N)CC(OC)OC(C)C1O (centres undefined) too.
> 100 µM (inactive)

Now give it for COc1cc([C@@H]2c3cc4c(cc3[C@@H](OC3OC5COC(C)OC5C(OC(=O)CN5CCN(C)CC5)C3OC(=O)CN3CCN(C)CC3)C3COC(=O)[C@@H]32)OCO4)cc(OC)c1OC(=O)CN1CCN(C)CC1 (some centres undefined) too.
44.1 µM (inactive)

Now give it for "Cc1cc(C)cc(-n2c3nc(=O)n(C)c(=O)c-3nc3ccccc32)c1" too.
26.8 µM (inactive)

Now give it for "CC(C)(C)OC(=O)N1[C@@H]2Cc3ccc(N)cc3[C@@]1(C)c1ccccc12" too.
16.8 µM (inactive)

----------
# System: OVCAR-8
# test-name: NCI tumour cell line growth inhibition, 48 h
Calls of active or inactive are those of the source. Rule as the data show it: active = GI50 up to about 1.1 µM and inactive = higher.
I'd be grateful if you could share measured GI50 for these entries.

API: value(readout= GI50, system= OVCAR-8, query= "Cc1ccc(C2=[N+]([O-])c3ccccc3C2=O)cc1" )
17.3 µM (inactive)

Now give it for "O=C(/C=C1/Nc2ccc([N+](=O)[O-])cc2N/C1=C/C(=O)c1ccc(Cl)cc1)c1ccccc1" too.
72.4 µM (inactive)

Now give it for COc1ccc(N[S+]([O-])c2ccc(Cl)cc2)cc1 (configuration not stated) too.
73.3 µM (inactive)

Now give it for O=C(Nc1nnc(-c2ccccc2)o1)C(SC(=S)N1CCOCC1)c1ccccc1 (configuration not stated) too.
31.8 µM (inactive)

Now give it for "COc1ccc2c(c1)nc1n2C(N)=Nc2ccccc2S1" too.
18.4 µM (inactive)

Now give it for "CC(=O)OC[C@@]12CC[C@H]3C(C)(C)CCC[C@]3(C)[C@H]1C[C@@H](C1=CC(=O)O[C@H]1O)O2" too.
3.18 µM (inactive)

Now give it for CCOC(=O)C(NC(=O)c1ccccc1)(Nc1ccc(S(=O)(=O)Nc2ccc(OC)nn2)cc1)C(F)(F)F (configuration not stated) too.
> 100 µM (inactive)

Now give it for "O=C1CCCCN1" too.
> 1120 µM (inactive)

Now give it for CC(C)C(Sc1nc(-c2ccccc2)c(-c2ccccc2)[nH]1)C(=O)NNC(=S)Nc1ccccc1 (configuration not stated) too.
21.5 µM (inactive)

Now give it for OC(CC(c1ccccc1)c1ccc(Cl)cc1)c1ccc(Cl)cc1 (configuration not stated) too.
36.8 µM (inactive)

Now give it for "c1ccc2c(c1)-c1ccccc1C2NC1=NCCO1" too.
20.8 µM (inactive)

Now give it for "COC(=O)CN1Cc2cc(C)cc(c2O)CN(CC(=O)OC)Cc2cc(C)cc(c2O)CN(CC(=O)OC)Cc2cc(C)cc(c2O)CN(CC(=O)OC)Cc2cc(C)cc(c2O)C1" too.
11 µM (inactive)
